- Test system: HSV-1
- assay_summary: HSV-1 ELISA in BSC-1 cells
- Assay type: cell-based
metric: IC50 (µM)
Write down the numeric answer in µM and omit the unit.

molecule: Nc1nc(OCC2CC2)c2ncn(/C=C3/C[C@@H]3CO)c2n1 [Compound 15]
IC50 [µM]: 7
//
molecule: Nc1nc(NC2CCCCC2)c2ncn(/C=C3/C[C@@H]3CO)c2n1 [Compound 11]
IC50 [µM]: 15
//
molecule: C=CCNc1nc(N)nc2c1ncn2/C=C1/C[C@@H]1CO [Compound 6]
IC50 [µM]: 4

Would you kindly look at the next entry?
Query: IC50; subject: Nc1nc(NCC2CC2)c2ncn(/C=C3/C[C@@H]3CO)c2n1 [Compound 8]
2.5
